test: Raman spectroscopy of the TFSI stretching mode; type: physicochemical; details: neat TFSI salt of the cation, 532 nm laser
assay-endpoint: TFSI Raman shift (cm⁻¹)
Report only the number, with the unit cm⁻¹ understood.

In plain terms, CCCCCCCCCCCCCCn1cc[n+](C)c1.O=S(=O)([N-]S(=O)(=O)C(F)(F)F)C(F)(F)F [[C14MIm][TFSI], 1-tetradecyl-3-methylimidazolium TFSI, reference compound] has a documented TFSI Raman shift of 742

The compound identified as C[n+]1ccn(C23CC4CC(C)(CC(C)(C4)C2)C3)c1.O=S(=O)([N-]S(=O)(=O)C(F)(F)F)C(F)(F)F [[Me2AdImMe][TFSI]] registered its TFSI Raman shift at 741

Reported TFSI Raman shift of CCCCCCCCCCn1cc[n+](C)c1.O=S(=O)([N-]S(=O)(=O)C(F)(F)F)C(F)(F)F [[C10MIm][TFSI], 1-decyl-3-methylimidazolium TFSI, reference compound] : 742

Entry "Cn1cc[n+](C23CC4C5CC6CC4C(C2)C(C6)C5C3)c1" , TFSI Raman shift reported as 743
